All values here come from patent US20120101093A1.

molecular target: BACE-1 enzyme (Homo sapiens, UniProt P56817); construct: purchased R & D Systems 931AS; test: BACE Fluorescence Resonance Energy Transfer (FRET) Assay; assay type: biochemical; conditions: pH 4-4.5, 30 min pre-incubation, about 1.5 hours reaction
Sequence (P56817 46-457 limits assumed): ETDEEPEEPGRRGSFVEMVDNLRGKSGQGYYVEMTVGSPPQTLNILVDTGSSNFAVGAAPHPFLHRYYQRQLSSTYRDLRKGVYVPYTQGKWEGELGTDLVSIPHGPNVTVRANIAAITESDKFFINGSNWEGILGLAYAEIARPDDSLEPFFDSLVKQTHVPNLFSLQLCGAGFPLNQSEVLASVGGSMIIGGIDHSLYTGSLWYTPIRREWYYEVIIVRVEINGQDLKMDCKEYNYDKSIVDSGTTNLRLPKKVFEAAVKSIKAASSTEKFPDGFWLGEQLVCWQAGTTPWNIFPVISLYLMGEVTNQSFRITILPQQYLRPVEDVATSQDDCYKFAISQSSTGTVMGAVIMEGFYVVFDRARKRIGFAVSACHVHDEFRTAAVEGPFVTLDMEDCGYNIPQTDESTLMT
Would you mind classing the entries by IC50? Ranges: lo: < 0.3 µM; mid: ≥ 0.3 µM and < 0.7 µM; hi: ≥ 0.7 µM

# compound, category-label
data = [
    ("CNc1cc(F)cn2cc(C(=O)Nc3nc4cc(-c5cccc(OC(F)(F)F)c5)ccc4[nH]3)nc12 [Example 132]", "hi"),
    ("O=C(Nc1nc2cc(-c3cccc(OC(F)(F)F)c3)ccc2[nH]1)c1cn2cc(F)cc(N3CCNCC3)c2n1 [Example 134]", "lo"),
    ("CCOc1cccc(-c2ccc3[nH]c(NC(=O)c4cn5c(C)cccc5n4)nc3c2)c1 [Example 35]", "hi"),
    ("CCOc1ccc(-c2ccc3[nH]c(NC(=O)c4cn5cccc(C)c5n4)nc3c2)cc1F [Example 81]", "hi"),
    ("Cc1c(OCCO)ccc2nc(C(=O)Nc3nc4cc(-c5cccc(C(F)(F)F)c5)ccc4[nH]3)cn12 [Example 7]", "lo"),
    ("Cc1cccn2cc(C(=O)Nc3nc4cc(-c5cc(Cl)cc(C(F)(F)F)c5)ccc4[nH]3)nc12 [Example 86]", "lo"),
    ("Cc1cccc2nc(C(=O)Nc3nc4cc(OCc5cccc(C(F)(F)F)c5)ccc4[nH]3)cn12 [Example 26]", "mid"),
    ("Cc1cccn2cc(C(=O)Nc3nc4cc(-c5cc(C(F)(F)F)ccc5F)ccc4[nH]3)nc12 [Example 71]", "mid"),
    ("CCOC(=O)c1cccc(-c2ccc3[nH]c(NC(=O)c4cn5c(C)cccc5n4)nc3c2)c1 [Example 72]", "mid"),
    ("Cn1cc(-c2cccc3nc(C(=O)Nc4nc5cc(-c6cccc(C(F)(F)F)c6)ccc5[nH]4)cn23)cn1 [Example 213]", "lo"),
    ("O=C(Nc1nc2cc(-c3cccc(C(F)(F)F)c3)ccc2[nH]1)c1cn2cc(CNCc3ccccc3)ccc2n1 [Example 186]", "mid"),
    ("Cc1cccc2nc(C(=O)Nc3nc4cc(-c5ccc(Cl)c(C(F)(F)F)c5)ccc4[nH]3)cn12 [Example 47]", "mid"),
    ("CN(C)CCOc1cc(F)cn2cc(C(=O)Nc3nc4cc(-c5cc(F)cc(Cl)c5)ccc4[nH]3)nc12 [Example 141]", "mid"),
    ("CC(C)CN(C)Cc1cccc2nc(C(=O)Nc3nc4cc(-c5cccc(C(F)(F)F)c5)ccc4[nH]3)cn12 [Example 191]", "hi"),
]
